target: T1, TRAIL (human, UniProt P50591 114-281); assay: phage ELISA
T1 construct: also called TNF-related apoptosis inducing ligand
T1 sequence (P50591 114-281 limits assumed): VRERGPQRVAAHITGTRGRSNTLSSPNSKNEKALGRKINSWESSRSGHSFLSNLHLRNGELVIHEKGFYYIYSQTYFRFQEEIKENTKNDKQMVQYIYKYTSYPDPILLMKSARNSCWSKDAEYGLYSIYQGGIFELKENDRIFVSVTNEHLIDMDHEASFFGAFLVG

>  <binder>
I037E12 (scFv) scFv: EVQLVQSGAEVKKPGASVKVSCKASGYTFTNYGITWVRQAPGQGLEWMGWISAYNGNRNYAQKLQGRVTMTTDTSTSTAYMELRSLRSDDTAVYYCVRDGIDILLVPAALMDVWGKGTLVTVSSGGGGSGGGGSGGGGSQSVLTQPASVSGSPGQSITISCTGTSSDVGGYNYVSWYQQHPGKAPKLMIYEGNKRPSGVSNRFSGSKSGNTASLTISGLQAEDEADYYCSSYTTRSTRVFGGGTKLTVLG

>  <binding result>
no binding

$$$$
>  <binder>
I016F02 (scFv) scFv: GVQLVESGAEVKKPGASVKVSCRTSGYTFTSNSFSWVRQAPGQGLEWMGGIIPIFGTANYAQKLQGRVTITADELTRTVYMDLSSLRSEDTAVYYCATGMGDHYGMDVWGRGTLVTVSSGGGGSGGGGSGGGGSQSVLTQPASVSGSPGQSITISCTGTSSDVGGYNYVSWYQQHPGKAPKLMIYEGSKRPSGVSNRFSGSKSGNTASLTISGLQAEDEADYYCSSYTTRSTRVFGGGTKLTVLG

>  <binding result>
no binding

$$$$
>  <binder>
I067B10 (scFv) scFv: QMQLVQSGAEVKKPGASVKVSCKASGYTFTSYYMHWVRQAPGQGLEWMGWINAGNSNTKYSQKFQGRVTITSDTSASTAYMELSGLRSEDTAVYYCARDRGAPNYDILTGYYAPAQGVAFDIWGKGTLATVSSGGGGSGGGGSGGGGSQSVLTQPPSVSAAPGQKVTISCSGSTSNIGNNYVSWYQQHPGKAPKLMIYDVSKRPSGVPDRFSGSKSGNSASLDISGLQSEDEADYYCAAWDDSLSEFLFGTGTKLTVLG

>  <binding result>
no binding

$$$$
